Molecular target: pooled human IgG (human IgG1, 2, 3 and 4) (human); note: test concentration or dose not given here
Assay: cell-based or functional assay
MEASUREMENT_KIND: Enzyme Activity Endpoint Assay: IgG
The answer should read as a number with its unit following.

BINDER	RESULT
PRT-387 (enzyme) MVTSVWTKGVTPPTNFTYGEDVLHAPYVANQGWYDITKTFNGKDDLLCGAATAGNMLHWWFDQNKEQIENYLKKHPEKQKINFNGEQMFDVKEAIDTKDSQLDSKLFEYFKEKAFPYLSTKHLGVFPDHVIDMFINGYRLSLTNHGPTPVKRGSKDPRGGIFDAVFTRGDQSKLLTNRHDFKEKTLKEISDLIKQELTEGKALGISHTYANVRINHVINLWGADFDAEGNLEAIYVTDSDSNASIGMKKYFVGVNSSGKVAISAKEIEEDNIGAQVLGLFTLSTGQDIWNQTN	0 ng/µL

Would you kindly look at the next entry?
Query string: Would you kindly share the measured Enzyme Activity Endpoint Assay: IgG for PRT-403 (enzyme) MVTSVWTKGVTPPADFTQGEDVFHAPYVANQGWYDITKTFNGKDDLLCGAATAGNMLHWWFDQNKEYIEAYLKKHPEKQKIMFGDQELLDVRKAINTKGSQKNSELFNYFRDKAFPNLSARRLGVMPDLVLDMFINGYYLNVTKTQTTDVNRTYQEKDKRGGIFDAVFTRGDQSKLLTSRHDFKEKGLKEISDLIKQELTEGKALGLSHTYANVRISHVINLWGADFDSDGNLKAIYVTDSDSNASIGMKKYFVGVNSAGKVAISAKEIKEDNIGAQVLGLFTLSTGQDIWNQTN ?
Result string: 166 ng/µL
